Assignment: determine reported cytotoxicity at 70.5 h for the given compounds.
test: Human HepG2 cell viability assay in 384 well format; format: toxicity, cell-based; set-up: dose 125 nL, time 70.5 hour; concentration not given beside the values; conditions: HepG2 cells, read-out: Inhibition
Numbers only, in %.

Report cytotoxicity at 70.5 h for each item below.
1. CCCS(=O)(=O)N1CCC2(CCC(=O)N(CCc3ccccc3)C2)CC1
2. COCc1nnc(NC(=O)CN2C(=O)c3ccccc3NC2C(C)C)s1 (centres undefined)
3. O=C(Cc1ccccc1C(F)(F)F)N1CCC2(CC1)OCCCC2O (centres undefined)

Outgoing:
1. -10.1
2. -12.3
3. -16.7

Report cytotoxicity at 70.5 h for each item below.
1. CC(C)n1c(C2CCCN(CC(N)=O)C2)nc2ccccc21 (centres undefined)
2. Cc1cccc(S(=O)(=O)NC(=O)CN(C)Cc2ccccc2)c1
3. CCc1nc(-c2noc3ccc(C(=O)N(C)CCOC)cc23)co1
4. CCc1c(C)nn(CCN2CC3(CCOC3)CCC2=O)c1C (centres undefined)
5. O=C1CCCC2=C1C(c1cc(Cl)ccc1F)Nc1nonc1N2 (centres undefined)
6. CCCc1noc(CCCC(=O)N2CCCC2c2cnn(C)c2)n1 (centres undefined)
7. Cc1cc(CN2CCN(CC(O)c3cccc(F)c3)CC2)no1 (centres undefined)
8. CC(C)(C)N1CCCN(C(=O)c2csc(S(N)(=O)=O)c2)CC1

Outgoing:
1: -1.68; 2: 1.15; 3: -12.2; 4: -6.21; 5: 9.69; 6: -8.23; 7: -4.25; 8: 15.7

Report cytotoxicity at 70.5 h for each item below.
1. CCC(CC)C(=O)N1CCN(Cc2cc(=O)c3ccccc3[nH]2)CC1
2. Cc1ccsc1CN(Cc1ccccn1)CC(O)CO (centres undefined)
3. COc1ccccc1CCNC(=O)CNCC1CN(C)CCO1 (centres undefined)
4. O=C(CCNS(=O)(=O)c1ccc(Cl)cc1)NCc1ccoc1
5. Cc1nc(CNc2cccc(Cl)c2Cl)cs1
6. CC(C)[C@H]1CN(Cc2ccccc2C#N)C[C@@H]1NC(=O)C1CCOCC1

Outgoing:
7.24
-1.67
-3.47
-5.84
16.5
-13.1
